Test system: Enterococcus faecalis
Experiment: Antibacterial activity against Enterococcus faecalis assessed as inhibition zone at 250 ug/ml measured after 24 to 45 hrs by disk diffusion method
Assay type: functional
The source made the active and inactive calls. The calls are words filed in the database; no cut-off is given here.
Experimental Endpoint: Activity

Example cases with answers are listed next.
{"columns": ["Substance Smiles", "Activity"],
 "data": [
  ["COc1ccc(/C=C/C(=O)c2ccc(F)cc2)cc1", "20 mm"],
  ["O=C(/C=C/c1ccc(Br)cc1)c1ccc(F)cc1", "20 mm"],
  ["CN(C)c1ccc(/C=C/C(=O)c2ccc(F)cc2)cc1", "inactive"],
  ["O=C(/C=C/c1ccccc1[N+](=O)[O-])c1ccc(F)cc1", "inactive"]
]}

Identify the measured Activity of "Cc1ccc(/C=C/C(=O)c2ccc(F)cc2)cc1" for Enterococcus faecalis. inactive
